Reference for the values: the supplement of paper PMC6555819

- System: PPARg:RXRa IVT, anti-PPARg (NR concentration 270 nM, RXRa partner concentration 90 nM)
- testDescription: PBM binding z-score (relative to random genomic background probes); higher = stronger binding; sequences stand for … in GC…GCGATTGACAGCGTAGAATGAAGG
reportedMetric: PBM binding z-score

>>> df
                               seqtext  measuredvalue
 0  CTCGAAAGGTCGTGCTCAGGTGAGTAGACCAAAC           1.86
 1  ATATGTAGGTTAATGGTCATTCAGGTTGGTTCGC           7.31
 2  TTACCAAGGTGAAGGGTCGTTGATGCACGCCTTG              4
 3  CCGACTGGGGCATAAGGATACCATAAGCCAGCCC           1.93
 4  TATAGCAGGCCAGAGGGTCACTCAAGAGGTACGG           1.41
 5  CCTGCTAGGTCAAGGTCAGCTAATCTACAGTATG           4.64
 6  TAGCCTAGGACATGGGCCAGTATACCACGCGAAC         -0.594
 7  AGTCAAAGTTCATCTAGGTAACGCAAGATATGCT           4.11
 8  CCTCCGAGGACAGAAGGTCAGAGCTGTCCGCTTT          0.312
 9  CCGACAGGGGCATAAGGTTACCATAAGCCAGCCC           0.15
10  GCAGACAGGTTAAACGCAGGTAACTCAGGGTGGC         -0.197
11  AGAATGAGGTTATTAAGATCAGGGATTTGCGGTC           2.51
12  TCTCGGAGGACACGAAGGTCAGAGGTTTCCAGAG           1.27
13  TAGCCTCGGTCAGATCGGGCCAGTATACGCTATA         -0.335
14  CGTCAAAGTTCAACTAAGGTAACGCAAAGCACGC           2.32
15  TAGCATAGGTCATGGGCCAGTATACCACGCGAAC           2.53
16  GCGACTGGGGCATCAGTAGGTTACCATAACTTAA           4.04
17  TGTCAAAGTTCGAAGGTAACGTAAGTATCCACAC           2.26
18  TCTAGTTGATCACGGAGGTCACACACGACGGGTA           2.26
19  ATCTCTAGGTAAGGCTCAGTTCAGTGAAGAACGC            1.3
20  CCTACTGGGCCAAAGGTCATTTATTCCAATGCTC           6.94
21  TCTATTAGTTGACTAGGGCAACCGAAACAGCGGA           3.38
22  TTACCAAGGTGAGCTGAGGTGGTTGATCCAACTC           1.48
23  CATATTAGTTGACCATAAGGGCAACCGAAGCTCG           1.02
24  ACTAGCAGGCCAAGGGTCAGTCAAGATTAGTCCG           2.79
25  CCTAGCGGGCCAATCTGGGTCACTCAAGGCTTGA           4.82

###

- System: RXRa DBDmut IVT, anti-RXR (DBD mutation: RXRa K156A/R161A, NR concentration 90 nM)
- testDescription: PBM binding z-score (relative to random genomic background probes); higher = stronger binding; sequences stand for … in GC…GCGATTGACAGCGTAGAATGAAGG
Recorded PBM binding z-score determines the label; the label ranges are class 0 (below 0.5), class 1 (0.5 to below 2), class 2 (2 or more)

                               seqtext  categorylabel
 0  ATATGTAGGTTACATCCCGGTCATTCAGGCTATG        class 1
 1  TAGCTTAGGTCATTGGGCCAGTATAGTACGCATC        class 2
 2  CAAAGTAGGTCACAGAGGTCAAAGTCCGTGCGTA        class 2
 3  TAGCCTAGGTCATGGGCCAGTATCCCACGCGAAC        class 0
 4  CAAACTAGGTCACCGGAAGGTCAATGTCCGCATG        class 2
 5  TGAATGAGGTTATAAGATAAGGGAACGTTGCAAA        class 1
 6  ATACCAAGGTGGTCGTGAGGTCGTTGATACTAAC        class 0
 7  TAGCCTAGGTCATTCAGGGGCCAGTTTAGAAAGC        class 1
 8  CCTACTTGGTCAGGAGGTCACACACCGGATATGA        class 1
 9  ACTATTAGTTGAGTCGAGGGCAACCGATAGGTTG        class 1
10  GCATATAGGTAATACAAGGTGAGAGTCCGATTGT        class 1
11  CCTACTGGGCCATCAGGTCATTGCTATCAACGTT        class 0

###

- Tested on: PPARg:RXRa 30nM:10nM, anti-RXR (NR concentration 30 nM, RXRa partner concentration 10 nM)
- testDescription: PBM binding z-score (relative to random genomic background probes); higher = stronger binding; sequences stand for … in GC…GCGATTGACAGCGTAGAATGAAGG
reportedMetric: PBM binding z-score

                               seqtext  measuredvalue
 0  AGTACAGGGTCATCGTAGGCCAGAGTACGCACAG           2.18
 1  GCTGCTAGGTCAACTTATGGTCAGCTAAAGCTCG          0.913
 2  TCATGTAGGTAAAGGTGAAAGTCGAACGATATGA           4.32
 3  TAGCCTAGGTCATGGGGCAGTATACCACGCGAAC           1.89
 4  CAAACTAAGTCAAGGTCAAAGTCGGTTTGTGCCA           1.62
 5  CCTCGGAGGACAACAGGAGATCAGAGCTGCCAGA         -0.377
 6  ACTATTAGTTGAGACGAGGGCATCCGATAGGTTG         0.0451
 7  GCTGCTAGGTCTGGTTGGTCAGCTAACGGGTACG          -1.15
 8  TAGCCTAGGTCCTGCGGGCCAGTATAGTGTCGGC         -0.922
 9  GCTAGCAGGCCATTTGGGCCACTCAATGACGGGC         -0.989
10  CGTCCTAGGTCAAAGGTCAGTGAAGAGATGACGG           9.03
11  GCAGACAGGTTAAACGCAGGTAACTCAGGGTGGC         -0.592
12  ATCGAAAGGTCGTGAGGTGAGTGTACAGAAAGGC           1.35
13  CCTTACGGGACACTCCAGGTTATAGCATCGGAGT        -0.0425
14  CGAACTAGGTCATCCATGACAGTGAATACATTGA           4.18
15  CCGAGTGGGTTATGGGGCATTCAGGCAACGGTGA           1.55
16  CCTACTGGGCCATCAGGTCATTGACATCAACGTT           1.46
17  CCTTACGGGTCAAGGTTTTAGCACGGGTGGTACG           1.43
18  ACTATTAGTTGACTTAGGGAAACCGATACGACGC          0.193
19  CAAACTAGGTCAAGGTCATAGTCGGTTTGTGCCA           6.24
20  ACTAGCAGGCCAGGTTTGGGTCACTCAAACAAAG         -0.537
21  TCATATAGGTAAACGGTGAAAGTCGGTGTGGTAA           4.43
22  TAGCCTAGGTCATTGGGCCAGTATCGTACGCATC          0.601
23  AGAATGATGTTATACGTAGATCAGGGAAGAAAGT          0.198
24  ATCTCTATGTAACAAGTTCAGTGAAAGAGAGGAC           0.31
25  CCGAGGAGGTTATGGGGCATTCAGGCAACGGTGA         0.0714

###

- Tested on: PXR homodimer (NR concentration 270 nM)
- testDescription: PBM binding z-score (relative to random genomic background probes); higher = stronger binding; sequences stand for … in GC…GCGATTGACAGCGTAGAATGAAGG
reportedMetric: PBM binding z-score

>>> print(df.to_string())
                               seqtext  measuredvalue
 0  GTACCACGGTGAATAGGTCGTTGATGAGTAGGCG          -0.47
 1  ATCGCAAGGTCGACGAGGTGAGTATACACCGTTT          0.566
 2  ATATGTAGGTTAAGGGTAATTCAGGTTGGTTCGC           1.44
 3  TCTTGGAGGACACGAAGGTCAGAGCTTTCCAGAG          0.605
 4  ATCTCTAGGTAAGAATCAGTTCAGTGAAGAACGC            1.2
 5  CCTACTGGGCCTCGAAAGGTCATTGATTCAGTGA           1.11
 6  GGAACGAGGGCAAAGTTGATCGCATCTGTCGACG          0.152
 7  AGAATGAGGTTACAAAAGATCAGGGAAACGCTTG          0.246
 8  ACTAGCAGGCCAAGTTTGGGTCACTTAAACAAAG         -0.404
 9  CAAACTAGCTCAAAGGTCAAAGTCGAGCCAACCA           1.71
10  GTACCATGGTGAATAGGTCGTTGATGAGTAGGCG         -0.347
11  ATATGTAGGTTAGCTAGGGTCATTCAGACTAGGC            2.1
12  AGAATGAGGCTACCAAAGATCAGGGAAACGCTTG         -0.439
13  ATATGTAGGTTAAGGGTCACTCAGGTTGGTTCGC           1.94
14  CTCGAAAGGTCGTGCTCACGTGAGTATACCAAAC         -0.121
15  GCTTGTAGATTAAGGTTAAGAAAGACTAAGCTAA         -0.332
16  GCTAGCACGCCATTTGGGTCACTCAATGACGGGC         -0.533
17  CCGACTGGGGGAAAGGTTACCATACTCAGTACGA          0.241
18  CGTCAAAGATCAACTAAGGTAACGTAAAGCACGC          0.224
19  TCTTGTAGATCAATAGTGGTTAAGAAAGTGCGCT          0.364
20  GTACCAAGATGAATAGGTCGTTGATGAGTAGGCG         0.0588
21  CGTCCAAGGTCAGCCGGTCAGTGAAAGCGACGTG          0.408
22  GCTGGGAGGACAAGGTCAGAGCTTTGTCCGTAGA        -0.0131
23  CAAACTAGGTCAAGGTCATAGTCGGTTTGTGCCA           2.73
24  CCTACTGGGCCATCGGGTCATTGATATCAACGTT        -0.0623
25  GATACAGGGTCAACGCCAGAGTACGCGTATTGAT          0.215
26  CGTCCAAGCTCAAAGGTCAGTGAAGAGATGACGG          0.202
27  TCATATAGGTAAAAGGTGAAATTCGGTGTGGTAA           1.11
28  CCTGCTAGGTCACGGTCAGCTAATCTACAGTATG         -0.469
29  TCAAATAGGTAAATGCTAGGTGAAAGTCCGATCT          0.443
30  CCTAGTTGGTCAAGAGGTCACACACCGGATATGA           1.63
31  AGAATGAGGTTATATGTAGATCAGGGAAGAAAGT          0.891
32  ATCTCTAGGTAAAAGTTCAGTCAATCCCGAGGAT           2.13
33  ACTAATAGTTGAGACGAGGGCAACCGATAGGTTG          0.121
34  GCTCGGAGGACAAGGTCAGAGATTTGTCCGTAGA          -0.24
35  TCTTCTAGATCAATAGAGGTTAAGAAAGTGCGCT          0.423
36  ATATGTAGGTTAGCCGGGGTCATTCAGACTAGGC           4.32
37  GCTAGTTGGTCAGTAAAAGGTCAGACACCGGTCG          0.554
38  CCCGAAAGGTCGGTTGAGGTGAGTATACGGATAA          0.481
39  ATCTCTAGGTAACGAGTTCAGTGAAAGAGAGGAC           2.89
40  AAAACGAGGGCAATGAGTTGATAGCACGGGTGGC           4.72
41  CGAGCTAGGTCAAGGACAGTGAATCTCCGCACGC          -0.22
42  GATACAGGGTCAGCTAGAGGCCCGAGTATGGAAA         -0.766
43  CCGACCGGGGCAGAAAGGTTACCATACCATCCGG         -0.029
44  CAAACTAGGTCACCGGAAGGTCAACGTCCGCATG           1.29
45  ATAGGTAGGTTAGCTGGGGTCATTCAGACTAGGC           4.41
46  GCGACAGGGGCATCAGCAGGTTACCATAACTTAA         0.0793
47  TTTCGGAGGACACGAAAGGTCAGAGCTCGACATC          0.968
48  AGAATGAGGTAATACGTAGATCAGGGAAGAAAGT          0.294
49  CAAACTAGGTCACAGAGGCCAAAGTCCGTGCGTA           2.61
50  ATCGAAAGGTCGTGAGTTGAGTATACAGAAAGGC          0.152
